Origin of measurements: the supplement of paper PMC6555819

tested on: RARa homodimer (NR concentration 270 nM); assay: PBM binding z-score (relative to random genomic background probes); higher = stronger binding; sequences stand for … in GC…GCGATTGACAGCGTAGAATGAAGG
If the reported PBM binding z-score equals or exceeds 0.3, assign met. If not, assign not met.

[
  {
    "sequence_code": "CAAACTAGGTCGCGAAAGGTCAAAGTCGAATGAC",
    "qualitative_label": "met"
  },
  {
    "sequence_code": "AGTCAAAGTTCAGGACGAGGTAACTTAAAGCACG",
    "qualitative_label": "met"
  },
  {
    "sequence_code": "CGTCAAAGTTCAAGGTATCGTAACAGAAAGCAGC",
    "qualitative_label": "met"
  },
  {
    "sequence_code": "GCTCGTTGGTCAGTAAAAGGTCACACACCGGTCG",
    "qualitative_label": "met"
  },
  {
    "sequence_code": "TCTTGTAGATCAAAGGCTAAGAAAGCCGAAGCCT",
    "qualitative_label": "not met"
  },
  {
    "sequence_code": "GCGACTGGGGCCTCAGCAGGTTACCATAACTTAA",
    "qualitative_label": "not met"
  },
  {
    "sequence_code": "TCTTGTAGATCAACAGGAGGTTAAGAACGATCGA",
    "qualitative_label": "not met"
  },
  {
    "sequence_code": "AGAATGAGGTTGTTAAGATCAGGGAATTGCGGTC",
    "qualitative_label": "not met"
  },
  {
    "sequence_code": "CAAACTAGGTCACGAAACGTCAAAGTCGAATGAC",
    "qualitative_label": "met"
  },
  {
    "sequence_code": "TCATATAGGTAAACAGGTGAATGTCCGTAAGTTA",
    "qualitative_label": "met"
  },
  {
    "sequence_code": "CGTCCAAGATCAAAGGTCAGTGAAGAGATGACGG",
    "qualitative_label": "met"
  },
  {
    "sequence_code": "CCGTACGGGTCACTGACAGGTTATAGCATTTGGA",
    "qualitative_label": "not met"
  },
  {
    "sequence_code": "CAGCCTAGGTCTGGGCCAGTATAGGAGGAACGTT",
    "qualitative_label": "not met"
  },
  {
    "sequence_code": "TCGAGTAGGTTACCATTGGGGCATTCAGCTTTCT",
    "qualitative_label": "not met"
  },
  {
    "sequence_code": "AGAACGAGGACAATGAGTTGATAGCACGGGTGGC",
    "qualitative_label": "not met"
  },
  {
    "sequence_code": "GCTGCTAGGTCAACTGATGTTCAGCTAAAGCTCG",
    "qualitative_label": "not met"
  },
  {
    "sequence_code": "ATCGAAAGGCCGTGAGGTGAGTATACAGAAAGGC",
    "qualitative_label": "not met"
  },
  {
    "sequence_code": "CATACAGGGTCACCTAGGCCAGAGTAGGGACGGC",
    "qualitative_label": "not met"
  },
  {
    "sequence_code": "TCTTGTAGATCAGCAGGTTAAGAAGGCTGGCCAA",
    "qualitative_label": "not met"
  },
  {
    "sequence_code": "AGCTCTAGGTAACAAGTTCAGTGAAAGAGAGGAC",
    "qualitative_label": "met"
  },
  {
    "sequence_code": "GCTGACAGGTGAAACGCAGGTAACTCAGGGTGGC",
    "qualitative_label": "not met"
  },
  {
    "sequence_code": "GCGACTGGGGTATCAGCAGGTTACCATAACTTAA",
    "qualitative_label": "not met"
  },
  {
    "sequence_code": "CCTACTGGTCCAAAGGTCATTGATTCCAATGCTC",
    "qualitative_label": "met"
  },
  {
    "sequence_code": "ATAGCAAGGTGATCGTGAGGTCGTTGATACTAAC",
    "qualitative_label": "not met"
  },
  {
    "sequence_code": "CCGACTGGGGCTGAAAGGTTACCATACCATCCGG",
    "qualitative_label": "not met"
  },
  {
    "sequence_code": "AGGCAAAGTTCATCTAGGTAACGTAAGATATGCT",
    "qualitative_label": "met"
  }
]
